Target: T1, human BR3 extracellular domain (human, UniProt Q96RJ3 1-61)
T1 construct: biotinylated where used as tracer; also called hBR3-ECD; BR3-ECD
Test Name: SPR BIAcore-2000, ECD on chip, Fab injected
Exercise: state measured koff for each of the binders provided.
Answer format: numeric, s⁻¹ implied, no suffix.

Sample V3-1 Fab (Fab, V domains shown, soluble Fab in SPR) VH: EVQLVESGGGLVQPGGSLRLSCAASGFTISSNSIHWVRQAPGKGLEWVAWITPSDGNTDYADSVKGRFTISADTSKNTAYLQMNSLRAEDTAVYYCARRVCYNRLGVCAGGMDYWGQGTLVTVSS VL: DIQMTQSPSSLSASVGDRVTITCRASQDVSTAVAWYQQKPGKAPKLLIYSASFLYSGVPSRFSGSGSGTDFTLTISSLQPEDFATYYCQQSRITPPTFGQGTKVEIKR — what was its koff?
0.000293

Please do the same for V3-11 Fab (Fab, V domains shown, soluble Fab in SPR) VH: EVQLVESGGGLVQPGGSLRLSCAASGFTISSNSIHWVRQAPGKGLEWVAWITPSDGNTDYADSVKGRFTISADTSKNTAYLQMNSLRAEDTAVYYCARRVCYNNLGVCAGAMDYWGQGTLVTVSS VL: DIQMTQSPSSLSASVGDRVTITCRASQDVSTAVAWYQQKPGKAPKLLIYSASFLYSGVPSRFSGSGSGTDFTLTISSLQPEDFATYYCQQTSTSPPTFGQGTKVEIKR as well.
0.00113

Another binder to check: V3-13 Fab (Fab, V domains shown, soluble Fab in SPR) VH: EVQLVESGGGLVQPGGSLRLSCAASGFTISRRSIHWVRQAPGKGLEWVAWITPSDGNTDYADSVKGRFTISADTSKNTAYLQMNSLRAEDTAVYYCARRVCYSSVRGCAGAMDYWGQGTLVTVSS VL: DIQMTQSPSSLSASVGDRVTITCRASQDVSTAVAWYQQKPGKAPKLLIYGASNLYSGVPSRFSGSGSGTDFTLTISSLQPEDFATYYCQQSHASPPTFGQGTKVEIKR
0.0028

Okay, and V3-12 Fab (Fab, V domains shown, soluble Fab in SPR) VH: EVQLVESGGGLVQPGGSLRLSCAASGFTISSNSIHWVRQAPGKGLEWVAWITPSDGNTDYADSVKGRFTISADTSKNTAYLQMNSLRAEDTAVYYCARRVCYDRARVCAGAMDYWGQGTLVTVSS VL: DIQMTQSPSSLSASVGDRVTITCRASQDVSTAVAWYQQKPGKAPKLLIYSASFLYSGVPSRFSGSGSGTDFTLTISSLQPEDFATYYCQQSYSTPPTFGQGTKVEIKR ?
0.00091

The reported numbers originate from patent US20100280227A1.
